system under test: human κ opioid receptors (Homo sapiens)
Sequence (P41145 whole entry): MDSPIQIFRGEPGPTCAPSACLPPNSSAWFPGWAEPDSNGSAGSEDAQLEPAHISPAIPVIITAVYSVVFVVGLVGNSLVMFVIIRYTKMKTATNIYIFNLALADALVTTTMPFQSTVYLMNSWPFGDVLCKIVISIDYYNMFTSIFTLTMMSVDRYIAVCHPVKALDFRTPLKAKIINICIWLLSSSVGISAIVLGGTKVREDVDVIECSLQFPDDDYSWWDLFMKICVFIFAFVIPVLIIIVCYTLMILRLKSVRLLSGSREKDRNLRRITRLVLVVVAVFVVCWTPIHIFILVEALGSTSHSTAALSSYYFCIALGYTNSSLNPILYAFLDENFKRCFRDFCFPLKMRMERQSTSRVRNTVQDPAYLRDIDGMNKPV
measurement notes: Opioid receptor function test (Lance Ultra cAMP kit, agonist activity)
condition label: CHO cells expressing human κ opioid receptors, 10 μM forskolin, 30 minutes
parameter measured: EC50

>>> result("Cc1ccn(CCN2CC[C@]34CCN(CC5CC5)[C@H](Cc5ccc(O)cc53)[C@]4(O)CC2)c1")
"0.31 nM"
>>> result("Cc1cn(CCN2CC[C@]34CCN(CC5CC5)[C@H](Cc5ccc(O)cc53)[C@]4(O)CC2)nc1C(F)(F)F")
"0.26 nM"
>>> result("Oc1ccc2c(c1)[C@@]13CCN(CCN4CCc5ccccc54)CC[C@@]1(O)[C@@H](C2)N(CC1CC1)CC3")
"0.74 nM"
>>> result("Oc1ccc2c(c1)[C@@]13CCN(CC4(c5ccccn5)CC4)CC[C@@]1(O)[C@@H](C2)N(CC1CC1)CC3")
"0.066 nM"
>>> result("Oc1ccc2c(c1)[C@@]13CCN(CCn4ccc(C(F)(F)F)n4)CC[C@@]1(O)[C@@H](C2)N(CC1CC1)CC3")
"0.36 nM"
>>> result("O=C(Cn1nccc1O)N1CC[C@]23CCN(CC4CC4)[C@H](Cc4ccc(O)cc42)[C@]3(O)CC1")
"0.13 nM"
>>> result("Cc1cnn(CCN2CC[C@]34CCN(CC5CC5)[C@H](Cc5ccc(O)cc53)[C@]4(O)CC2(C)C)c1")
"0.052 nM"
>>> result("Cc1cnn(CC(=O)N2CC[C@]34CCN(CC5CC5)[C@H](Cc5ccc(O)cc53)[C@]4(O)CC2)c1")
"0.089 nM"

*Q* What measured EC50 goes with `Cc1ccnc(CCN2CC[C@]34CCN(CC5CC5)[C@H](Cc5ccc(O)cc53)[C@]4(O)CC2)c1` ?
*A* 0.088 nM

*Q* What measured EC50 goes with `Oc1ccc2c(c1)[C@@]13CCN(CCn4cc(C(F)(F)F)cn4)CC[C@@]1(O)[C@@H](C2)N(CC1CC1)CC3` ?
*A* 0.019 nM

*Q* What measured EC50 goes with `O=C(Cc1cscn1)N1CC[C@]23CCN(CC4CC4)[C@H](Cc4ccc(O)cc42)[C@]3(O)CC1` ?
*A* 0.92 nM

*Q* What measured EC50 goes with Cc1cnn(CCN2CC[C@]34CCN(CC5CC5)[C@H](Cc5ccc(O[C@@H]6O[C@H](C(=O)O)[C@@H](O)C(O)[C@H]6O)cc53)[C@]4(O)CC2)c1 (some centres unmarked) ?
*A* 2.6 nM

*Q* What measured EC50 goes with `Cc1cc2c(cc1O)[C@@]13CCN(C(=O)Cc4cn5ccccc5n4)CC[C@@]1(O)[C@@H](C2)N(CC1CC1)CC3` ?
*A* 0.27 nM

*Q* What measured EC50 goes with `CC(C)(C)c1cnn(CCN2CC[C@]34CCN(CC5CC5)[C@H](Cc5ccc(O)cc53)[C@]4(O)CC2)c1` ?
*A* 0.023 nM
